- MEASUREMENT_TARGET: CYP3A4 (Homo sapiens, UniProt P08684)
- Construct: host or cells: insect cell microsomes
- Sequence (P08684 whole entry): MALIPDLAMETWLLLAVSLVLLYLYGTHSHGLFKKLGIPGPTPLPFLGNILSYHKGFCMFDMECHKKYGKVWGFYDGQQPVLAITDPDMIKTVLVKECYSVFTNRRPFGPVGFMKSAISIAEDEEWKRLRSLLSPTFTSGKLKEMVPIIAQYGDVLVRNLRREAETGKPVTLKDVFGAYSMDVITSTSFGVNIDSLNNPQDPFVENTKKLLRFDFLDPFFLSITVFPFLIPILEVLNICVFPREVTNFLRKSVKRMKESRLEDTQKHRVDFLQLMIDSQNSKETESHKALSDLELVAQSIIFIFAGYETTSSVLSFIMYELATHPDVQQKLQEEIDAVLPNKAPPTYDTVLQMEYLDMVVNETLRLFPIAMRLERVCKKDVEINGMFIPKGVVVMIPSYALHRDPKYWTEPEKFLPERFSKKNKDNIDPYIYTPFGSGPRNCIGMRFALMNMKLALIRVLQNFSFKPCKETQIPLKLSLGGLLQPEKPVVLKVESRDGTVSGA
- PROTOCOL_TEXT: CYP3A4 inhibition (fluorescence, substrates DBF or 7-BFC)
- Type: biochemical
- MEASUREMENT_PARAMETERS: substrate dibenzylfluorescein; IC50 obtained by extrapolation with analysis software; read-out: CYP3A4 IC50, DBF
Quick reference for pIC50 among some compounds
Interpret pIC50 as the negative base-10 log of the concentration measured in mol/L.

These recorded examples may help you get a feel for the data.
* CC1=C(C(=O)OC(C)C)C(c2ccco2)n2c(nc3cc(Br)ccc32)N1 (centres unmarked) [16r] | 5.65
* CC1=C(C(=O)OC(C)C)C(c2ccoc2)n2c(nc3cc(Cl)ccc32)N1 (centres unmarked) [16l] | 5.20

Now look at this one.
// lookup pIC50 for CC1=C(C(=O)OC(C)C)C(c2ccco2)n2c(nc3cc(Cl)ccc32)N1 (centres unmarked) [16j] 5.43
